This collection of values is drawn from patent US20140357655A1.

# maps each entry to its IC50
Biological target: UniProt P30968
Sequence (P30968 1-328): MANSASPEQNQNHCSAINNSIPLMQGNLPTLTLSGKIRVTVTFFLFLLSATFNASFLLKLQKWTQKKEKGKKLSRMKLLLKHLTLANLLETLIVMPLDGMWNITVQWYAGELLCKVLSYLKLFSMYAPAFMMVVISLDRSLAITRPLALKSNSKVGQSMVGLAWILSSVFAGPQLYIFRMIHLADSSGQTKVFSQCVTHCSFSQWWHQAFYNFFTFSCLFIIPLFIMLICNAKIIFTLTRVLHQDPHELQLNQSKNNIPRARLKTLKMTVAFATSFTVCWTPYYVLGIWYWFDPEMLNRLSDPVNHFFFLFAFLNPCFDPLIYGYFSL
Test: IP-One HTRF assay with buserelin (at EC80) stimulation
Conditions: CHO cells stably expressing human GnRH receptor, read-out: Potency in IP-One HTRF assay, given as IC50
quantity kind: IC50

molecule: O=C(NCc1ccccc1C(F)(F)F)c1ccc2c(c1)C1(CCS(=O)(=O)CC1)C(C1CC1)N2S(=O)(=O)c1ccc(OC(F)F)cc1 (stereo not drawn)
system under test: UniProt P30968
result: 31 nM
--
molecule: O=C(NCc1ccccc1Cl)c1ccc2c(c1)C1(CCSCC1)C(C1CC1)N2S(=O)(=O)c1ccc(F)cc1 (single isomer, unassigned) [Example 12.2]
system under test: UniProt P30968
result: 3730 nM
--
molecule: O=C(NCc1ccccc1C(F)F)c1ccc2c(c1)C1(CCS(=O)(=O)CC1)C(C1CC1)N2S(=O)(=O)c1ccc(F)cc1 (single isomer, unassigned) [Example 68.2]
system under test: UniProt P30968
result: 143 nM
--
molecule: C=CCC1N(S(=O)(=O)c2ccc(F)cc2)c2ccc(C(=O)Nc3cccc(C(=O)OC)c3)cc2C12CCS(=O)(=O)CC2 (stereo not drawn)
system under test: UniProt P30968
result: 41 nM
--
molecule: O=C(NCc1ncccc1Cl)c1ccc2c(c1)C1(CCS(=O)(=O)CC1)C(C1CC1)N2S(=O)(=O)c1ccc(F)cc1 (single isomer, unassigned) [Example 14.2]
system under test: UniProt P30968
result: 5390 nM
--
molecule: COc1cccc(S(=O)(=O)N2c3ccc(C(=O)NCc4ccc(F)cc4Cl)cc3C3(CCS(=O)(=O)CC3)C2C2CC2)c1 (single isomer, unassigned) [Example 46.2]
system under test: UniProt P30968
result: 732 nM

----------
target: human GnRH receptor (Homo sapiens); assay: IP-One HTRF assay with buserelin (at EC80) stimulation; details: CHO cells stably expressing human GnRH receptor, read-out: Potency in IP-One HTRF assay, given as IC50
quantity kind: IC50 (nM)

compound: Cc1cc(NS(=O)(=O)c2cccc(NC(=O)c3ccc4c(c3)C3(CCS(=O)(=O)CC3)C(C3CC3)N4S(=O)(=O)c3ccc(F)cc3)c2)no1 (centres unmarked)
units text: nM
readout number: 177

compound: COc1cccc(S(=O)(=O)N2c3ccc(C(=O)NCc4ncccc4Cl)cc3C3(CCS(=O)(=O)CC3)C2C2CC2)c1 (single isomer, unassigned) [Example 41.1]
units text: nM
readout number: 102

compound: O=C(O)c1cccc(S(=O)(=O)N2c3ccc(C(=O)NCc4ccccc4Cl)cc3C3(CCS(=O)(=O)CC3)C2C2CC2)c1 (single isomer, unassigned) [Example 61.2]
units text: nM
readout number: 2010

compound: N#Cc1cccc(S(=O)(=O)N2c3ccc(C(=O)NCc4ccccc4Cl)cc3C3(CCS(=O)(=O)CC3)C2C2CC2)c1 (single isomer, unassigned) [Example 76.1]
units text: nM
readout number: 21

compound: O=C(NCc1ncccc1C(F)(F)F)c1ccc2c(c1)C1(CCS(=O)(=O)CC1)C(C1CC1)N2S(=O)(=O)c1cccc(OC(F)F)c1 (centres unmarked)
units text: nM
readout number: 143

compound: O=C(Nc1cncc(Cl)c1)c1ccc2c(c1)C1(CCS(=O)(=O)CC1)C(C1CC1)N2S(=O)(=O)c1cccc(OC(F)F)c1 (centres unmarked)
units text: nM
readout number: 262

compound: O=C(NC1(c2ccccc2Cl)CC1)c1ccc2c(c1)C1(CCS(=O)(=O)CC1)C(C1CC1)N2S(=O)(=O)c1ccc(F)cc1 (centres unmarked)
units text: nM
readout number: 3040

compound: COc1cccc(S(=O)(=O)N2c3ccc(C(=O)NCc4ccc(F)cc4Cl)cc3C3(CCS(=O)(=O)CC3)C2C2CC2)c1 (single isomer, unassigned) [Example 46.1]
units text: nM
readout number: 50

compound: O=C(NCc1ccccc1C(F)F)c1ccc2c(c1)C1(CCS(=O)(=O)CC1)C(C1CC1)N2S(=O)(=O)c1ccc(OC(F)F)cc1 (centres unmarked)
units text: nM
readout number: 5.9

compound: Cc1cccnc1CNC(=O)c1ccc2c(c1)C1(CCS(=O)(=O)CC1)C(C1CC1)N2S(=O)(=O)c1ccc(F)cc1 (single isomer, unassigned) [Example 31.2]
units text: nM
readout number: 15100

compound: COc1cccc(S(=O)(=O)N2c3ccc(C(=O)NCc4ncccc4C)cc3C3(CCS(=O)(=O)CC3)C2C2CC2)c1 (single isomer, unassigned) [Example 45.1]
units text: nM
readout number: 253

compound: N#Cc1ccc(S(=O)(=O)N2c3ccc(C(=O)NCc4ncccc4Cl)cc3C3(CCS(=O)(=O)CC3)C2C2CC2)cc1 (single isomer, unassigned) [Example 70.2]
units text: nM
readout number: 202

compound: O=C(O)c1cccc(NC(=O)c2ccc3c(c2)C2(CCS(=O)(=O)CC2)C(C2CC2)N3S(=O)(=O)c2cccc(OC(F)(F)F)c2)c1 (centres unmarked)
units text: nM
readout number: 140

compound: O=C(NCc1ccccn1)c1ccc2c(c1)C1(CCS(=O)(=O)CC1)C(C1CC1)N2S(=O)(=O)c1ccc(F)cc1 (centres unmarked)
units text: nM
readout number: 1480

compound: CC1N(S(=O)(=O)c2ccc(F)cc2)c2ccc(C(=O)NCc3ccc(F)cc3)cc2C12CCOCC2 (centres unmarked)
units text: nM
readout number: 1060

compound: O=C(NCc1ncccc1Cl)c1ccc2c(c1)C1(CCS(=O)(=O)CC1)C(C1CC1)N2S(=O)(=O)c1ccc(F)cc1 (single isomer, unassigned) [Example 14.1]
units text: nM
readout number: 104

compound: NS(=O)(=O)c1cccc(NC(=O)c2ccc3c(c2)C2(CCS(=O)(=O)CC2)C(C2CC2)N3S(=O)(=O)c2ccc(F)cc2)c1 (single isomer, unassigned) [Example 30.1]
units text: nM
readout number: 441
